- Assay notes: TLR3 IRF3 reporter activation blockers – cell-based, poly I:C stimulus, luciferase, 10K MLSCN set, primary screen (AID 602277)
- Applied conditions: HEK293-TLR3 RL24 IRF3 luciferase reporter, at 10 µM, active compounds read high
Readout name: inhibition (%)

Compound	Numeric value
CCCCOc1ccc(C2C3CN(C(=O)OCC)CC=C3C(C#N)=C(N)C2(C#N)C#N)cc1OC (centres undefined)	19.7
CC12CN3CC(C)(CN(C1)C3c1ccc(Cl)cc1Cl)C2=O (centres undefined)	28.2
CC1CCCc2sc3nc(NCc4ccco4)n4ncnc4c3c21 (centres undefined)	-0.465
CCC1SC2=NC(C)=C(C(=O)OC)C(c3ccc(C)cc3)N2C1=O (centres undefined)	-17.2
Cn1cnc(S(=O)(=O)Nc2ccc(C(F)(F)F)cc2)c1	18
Cc1nc(CNS(=O)(=O)c2cccc(F)c2)cs1	20.4
CCOC(=O)c1[nH]c(=O)c2ccccc2c1O	-8.42
COc1ccccc1NC(=O)CSc1nnnn1-c1ccc2c(c1)OCO2	26.1
O=S(=O)(Cc1ccccc1)N1CCCCCC1	4.76
O=C(COC(=O)c1ccccc1Oc1ccccc1)NC1CCS(=O)(=O)C1 (centres undefined)	-20
O=C(NCc1cccs1)c1cc2c(s1)-c1ccccc1OC2	-187
COc1cc(OC)nc(NC(=O)CSc2nc3ccccc3o2)n1	-3.75
O=c1oc2ccccc2cc1NCc1ccccc1O	-21.8
Cc1nnc2ccc(N3CCN(c4cccc(C(F)(F)F)c4)CC3)nn12	11.9
CCOc1ccc(-c2nc(C#N)c(NCc3ccc4c(c3)OCO4)o2)cc1	-18.3
O=C(OCc1nnc(-c2ccc(Cl)cc2)o1)c1ccc(=O)n(Cc2ccccc2)n1	-8.16
COC(=O)c1ccccc1NS(=O)(=O)c1ccc(F)cc1	17.7
CCC(=O)Nc1cc2nn(-c3ccccc3)nc2cc1Cl	-46.9
Cc1cccc(C(OC(=O)c2ccco2)C(=O)NCc2ccccc2)n1 (centres undefined)	21.1
COc1ccc(-c2nnc(-c3cccs3)o2)cc1OC	-170
COc1ccccc1N(CC(=O)Nc1cccnc1)S(C)(=O)=O	17.6
O=C(c1ccco1)N(Cc1cc2ccccc2[nH]c1=O)C1CCCCC1	6.38
NC(=O)CSc1cn(CCNC(=O)c2cccs2)c2ccccc12	23.4
CCOC(=O)C1=C(NC#N)OC(C)=C(C)C1c1ccc(O)cc1 (centres undefined)	18.3
